Provenance of the data: paper PMC7961380

# PROTOCOL DETAILS: Plasma protein binding by equilibrium dialysis
# Type: in vitro ADME, human
# TEST PARAMETERS: human, pooled human plasma, pH 7.4, equilibrium dialysis 5 h, 37 °C, plasma; read-out: Fraction Unbound (fu)

>  <COMPOUND>
COC(=O)[C@@H](NC(=O)c1nn(Cc2ccc(F)cc2)c2ccccc12)C(C)(C)C [(S)-MDMB-FUBINACA (6)]

>  <fraction unbound at 5 h, 10 µg mL^−1>
0.005

$$$$
>  <COMPOUND>
C=CCCCn1cc(C(=O)N[C@@H](C(=O)OC)C(C)C)c2ccccc21 [(R)-AMB-4en-PICA (7)]

>  <fraction unbound at 5 h, 10 µg mL^−1>
0.059

$$$$
>  <COMPOUND>
CC(C)[C@H](NC(=O)c1nn(CC2CCCCC2)c2ccccc12)C(N)=O [(S)-AB-[…] (11)]

>  <fraction unbound at 5 h, 10 µg mL^−1>
0.028

$$$$
>  <COMPOUND>
COC(=O)[C@@H](NC(=O)c1nn(CCCCCF)c2ccccc12)C(C)C [(S)-5F-AMB-PINACA (10)]

>  <fraction unbound at 5 h, 10 µg mL^−1>
0.058

$$$$
>  <COMPOUND>
COC(=O)[C@@H](NC(=O)c1cn(CCCCCF)c2ccccc12)C(C)(C)C [(S)-5F-MDMB-PICA (3)]

>  <fraction unbound at 5 h, 10 µg mL^−1>
0.062

$$$$
>  <COMPOUND>
COC(=O)[C@@H](NC(=O)c1cn(CC2CCCCC2)c2ccccc12)C(C)C [(S)-AMB-CHMICA (9)]

>  <fraction unbound at 5 h, 10 µg mL^−1>
0.012

$$$$

====

# PROTOCOL DETAILS: Short-term plasma stability with and without esterase inhibitors
# TEST PARAMETERS: 3 h, 37 °C, pH 7.4, pooled human plasma
PROPERTY NAME: Parent Compound Remaining (%), No Esterase Inhibitors

>  <MOLECULE>
COC(=O)[C@H](NC(=O)c1nn(CCCCCF)c2ccccc12)C(C)(C)C [(R)-5F-MDMB-PINACA (2)]

>  <UNITS SYMBOL>
%

>  <ASSAY RESULT>
95.9

$$$$
>  <MOLECULE>
COC(=O)[C@H](NC(=O)c1nn(CCCCF)c2ccccc12)C(C)(C)C [(R)-4F-MDMB-BINACA (4)]

>  <UNITS SYMBOL>
%

>  <ASSAY RESULT>
91.1

$$$$
>  <MOLECULE>
COC(=O)[C@H](NC(=O)c1cn(CCCCCF)c2ccccc12)C(C)(C)C [(R)-5F-MDMB-PICA (3)]

>  <UNITS SYMBOL>
%

>  <ASSAY RESULT>
103.2

$$$$
>  <MOLECULE>
C=CCCCn1cc(C(=O)N[C@@H](C(=O)OC)C(C)(C)C)c2ccccc21 [(R)-MDMB-4en-PICA (12)]

>  <UNITS SYMBOL>
%

>  <ASSAY RESULT>
90.3

$$$$

====

# Tested on: pooled human cryopreserved hepatocytes (pHHeps)
# PROTOCOL DETAILS: Metabolic stability, pooled human cryopreserved hepatocyte incubations
# TEST PARAMETERS: pHHeps, 30 min
In this section, each of the compounds is paired with its reported % parent compound remaining, Average.

>  <COMPOUND>
O=c1ccc2ccc(O)cc2o1 [7-hydroxycoumarin, reference compound]

>  <UNITS SYMBOL>
%

>  <% parent compound remaining, Average>
75.8

$$$$
>  <COMPOUND>
COC(=O)[C@@H](NC(=O)c1nn(CCCCCF)c2ccccc12)C(C)(C)C [(S)-5F-MDMB-PINACA (2)]

>  <UNITS SYMBOL>
%

>  <% parent compound remaining, Average>
21.1

$$$$
>  <COMPOUND>
COC(=O)[C@@H](NC(=O)c1nn(CCCCF)c2ccccc12)C(C)(C)C [(S)-4F-MDMB-BINACA (4)]

>  <UNITS SYMBOL>
%

>  <% parent compound remaining, Average>
25.8

$$$$
>  <COMPOUND>
C=CCCCn1cc(C(=O)N[C@H](C(=O)OC)C(C)C)c2ccccc21 [(S)-AMB-4en-PICA (7)]

>  <UNITS SYMBOL>
%

>  <% parent compound remaining, Average>
6.5

$$$$
>  <COMPOUND>
COC(=O)[C@@H](NC(=O)c1nn(Cc2ccc(F)cc2)c2ccccc12)C(C)(C)C [(S)-MDMB-FUBINACA (6)]

>  <UNITS SYMBOL>
%

>  <% parent compound remaining, Average>
38.8

$$$$
>  <COMPOUND>
COC(=O)[C@H](NC(=O)c1cn(CCCCCF)c2ccccc12)C(C)(C)C [(R)-5F-MDMB-PICA (3)]

>  <UNITS SYMBOL>
%

>  <% parent compound remaining, Average>
64.9

$$$$
>  <COMPOUND>
CC(C)[C@H](NC(=O)c1nn(Cc2ccc(F)cc2)c2ccccc12)C(N)=O [(S)-AB-FUBINACA (8)]

>  <UNITS SYMBOL>
%

>  <% parent compound remaining, Average>
72.4

$$$$
>  <COMPOUND>
C=CCCCn1cc(C(=O)N[C@H](C(=O)OC)C(C)(C)C)c2ccccc21 [(S)-MDMB-4en-PICA (12)]

>  <UNITS SYMBOL>
%

>  <% parent compound remaining, Average>
51.6

$$$$
>  <COMPOUND>
COC(=O)[C@@H](NC(=O)c1nn(CCCCCF)c2ccccc12)C(C)C [(S)-5F-AMB-PINACA (10)]

>  <UNITS SYMBOL>
%

>  <% parent compound remaining, Average>
0.3

$$$$
>  <COMPOUND>
C=CCCCn1cc(C(=O)N[C@@H](C(=O)OC)C(C)C)c2ccccc21 [(R)-AMB-4en-PICA (7)]

>  <UNITS SYMBOL>
%

>  <% parent compound remaining, Average>
4.6

$$$$
>  <COMPOUND>
COC(=O)[C@H](NC(=O)c1nn(CCCCCF)c2ccccc12)C(C)(C)C [(R)-5F-MDMB-PINACA (2)]

>  <UNITS SYMBOL>
%

>  <% parent compound remaining, Average>
27.3

$$$$
>  <COMPOUND>
COC(=O)C(NC(=O)c1cn(CC2CCCCC2)c2ccccc12)C(C)C (stereo in doubt) [(R)-AMB-CHMICA (9)]

>  <UNITS SYMBOL>
%

>  <% parent compound remaining, Average>
11.8

$$$$
>  <COMPOUND>
CCOc1ccc2ccc(=O)oc2c1 [7-ethoxycoumarin, reference compound]

>  <UNITS SYMBOL>
%

>  <% parent compound remaining, Average>
54.9

$$$$
>  <COMPOUND>
COC(=O)[C@@H](NC(=O)c1cn(CCCCCF)c2ccccc12)C(C)(C)C [(S)-5F-MDMB-PICA (3)]

>  <UNITS SYMBOL>
%

>  <% parent compound remaining, Average>
57.6

$$$$
>  <COMPOUND>
COC(=O)[C@@H](NC(=O)c1cn(CC2CCCCC2)c2ccccc12)C(C)C [(S)-AMB-CHMICA (9)]

>  <UNITS SYMBOL>
%

>  <% parent compound remaining, Average>
8.7

$$$$
>  <COMPOUND>
COC(=O)C(NC(=O)c1nn(Cc2ccc(F)cc2)c2ccccc12)C(C)C (stereo in doubt) [(R)-AMB-FUBINACA (1)]

>  <UNITS SYMBOL>
%

>  <% parent compound remaining, Average>
2.7

$$$$
